Reference source for all entries: patent US4713238A

Test: physchem
Settings: water, water solubility of uncomplexed chlorothiazide
reportedEndpoint: solubility

INSERT INTO assay_data (compound, reportedendpoint, reportedvalue) VALUES
  ('NS(=O)(=O)c1cc2c(cc1Cl)N=CNS2(=O)=O [chlorothiazide]', 'solubility', '~500 µg/mL');
